Listing: shrunken log2 fold change of selected sequences
test system: Escherichia coli TOP10; test: shrunken log2 fold change of peptide-encoding DNA abundance (4.5 h post-induction vs induction); higher = less antimicrobial activity (less host growth inhibition); conditions: time post-induction: 4.5 h; library: site-saturation at positions 5, 18, 19, 20;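 further: peptides expressed intracellularly from a pBAD plasmid library in pooled LB shake-flask culture, induced with 0.3% L-arabinose, DNA abundance read by NGS, three biological replicates, DESeq2 with apeglm shrinkage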
Just the number, please, no unit attached.

BIOPOLYMER_SEQUENCE	shrunken log2 fold change
RRIRHRPPRLPRPRPRPLEYPRP	-0.168
RRIRFRPPRLPRPRPRPLGTPRP	0.0158
RRIRFRPPRLPRPRPRPCMVPRP	1.01
RRIRCRPPRLPRPRPRPGKWPRP	0.107
RRIRDRPPRLPRPRPRPGKMPRP	0.0346

Using the record for RRIRFRPPRLPRPRPRPMKRPRP , state its measured shrunken log2 fold change.
0.347

Identify the reported shrunken log2 fold change for the following entry. RRIRARPPRLPRPRPRPNESPRP
0.102
